- SYSTEM: T1, SHANK1 PDZ (human, aa 652-761) (human, UniProt Q9Y566 652-761)
- T1 construct: Shank1, human, PDZ, aa 652-761 in pETM-33; source: E. coli BL21 Gold (DE3), purified (Ni2+ Sepharose; tag removed with HRV3C protease)
- T1 sequence (looked up): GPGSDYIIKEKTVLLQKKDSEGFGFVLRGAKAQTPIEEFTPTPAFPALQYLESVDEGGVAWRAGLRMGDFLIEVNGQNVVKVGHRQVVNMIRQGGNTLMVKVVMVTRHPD
- PROTOCOL_TEXT: MST; FITC-labelled peptide fixed at 25-50 nM, untagged SHANK1 PDZ titrated (1:1 dilution series); PBS, 10 mM MgCl2, 0.05% Tween-20; thermophoresis and T-Jump signal; triplicate
- EXPERIMENTAL_CONTEXT: both partners purified
pKd: −log10 of the molar value. Square brackets hold non-standard residues; d marks the D form. Ends that are not written are not given here. * marks the point of attachment. FITC = O=C1OC2(c3ccc(O)cc3Oc3cc(O)ccc32)c2ccc(NC(=S)*)cc21; pS = N[C@@H](COP(=O)(O)O)C(=O)O
ENDPOINT_LABEL: pKd

Take a look at these entries with their results.
BINDER	ENDPOINT_LABEL	ENDPOINT_RESULT
{FITC}-RLT[pS]TRL (C-terminal seven residues of RPS6KA2, human; the methods give pS at this position; also called pRPS6KA2; source: synthetic peptide, bought: GeneCust) [FITC-RLTpSTRL (RPS6KA2 peptide, p-3 phosphorylated)]	pKd	4.80
{FITC}-HTNETEL (also called Mimetic MCC; source: synthetic peptide, bought: GeneCust) [FITC-HTNETEL (MCC peptide, phosphomimetic at p-1)]	pKd	4.28
{FITC}-RLTETRL (C-terminal seven residues of RPS6KA2, human, with S730E; also called Mimetic RPS6KA2; source: synthetic peptide, bought: GeneCust) [FITC-RLTETRL (RPS6KA2 peptide, phosphomimetic at p-3)]	pKd	4.21

(a) {FITC}-HTNET[pS]L (C-terminal seven residues of MCC, human; also called pMCC; source: synthetic peptide, bought: GeneCust) [FITC-HTNETpSL (MCC peptide, p-1 phosphorylated)]
(b) {FITC}-HTNETSL (C-terminal seven residues of MCC, human; source: synthetic peptide, bought: GeneCust) [FITC-HTNETSL (MCC peptide, unphosphorylated)]
(c) {FITC}-RLTSTRL (C-terminal seven residues of RPS6KA2, human; source: synthetic peptide, bought: GeneCust) [FITC-RLTSTRL (RPS6KA2 peptide, unphosphorylated)]
Asked: Please list these in order of increasing pKd. Thank you! Labels, requested order.
Given back: a, b, c
